Reference source for all entries: patent US20230391772A1

- System: NCI-H358 human non-small cell lung cancer
- ASSAY NAME: NCI-H358 CCK-8 proliferation assay
- Format: cell-based
- CONDITION INFO: NCI-H358 cells, 72 hr
pEC50: −log10 of the molar value.

# COMPOUND, pEC50
rows = [
    ("C=CC(=O)N1CCN(c2nc(NCCC(=O)NCC3CCN(C(=O)C4CCN(Cc5ccc(-n6c(O)nnc6-c6cc(C(C)C)c(O)cc6O)cc5)CC4)CC3)nc3c2CCN(c2cccc4cccc(Cl)c24)C3)C[C@H]1CC#N", "< 6.00"),
    ("C=CC(=O)N1CCN(c2nc(NCCC(=O)NCc3ccc(CN4CCC(Cc5ccc(-n6c(C(=O)NCC(F)(F)F)nnc6-c6cc(C(C)C)c(O)cc6O)cc5)CC4)cc3)nc3c2CCN(c2cccc4ccccc24)C3)C[C@H]1CC#N", "6.00 to 7.00"),
    ("C=CC(=O)N1CCN(c2nc(OC[C@@H]3CCN(C(=O)c4cc(C(C)C)c(O)cc4O)C3)nc3c2CCN(c2cccc4cccc(Cl)c24)C3)C[C@@H]1CC#N", "< 6.00"),
    ("C=C(F)C(=O)N1CCN(c2nc(N3CCC(CN4CCN(Cc5ccc(-n6c(O)nnc6-c6cc(C(C)C)c(O)cc6O)cc5)CC4)CC3)nc3c2CCN(c2cccc4cccc(Cl)c24)C3)C[C@@H]1CC#N", "6.00 to 7.00"),
]

---

# reported IC50; entries follow
- MEASURED TARGET: KRAS(G12C) (Homo sapiens, UniProt P01116, G12C)
- Sequence (P01116 1-188 isoform P01116-2 G12C): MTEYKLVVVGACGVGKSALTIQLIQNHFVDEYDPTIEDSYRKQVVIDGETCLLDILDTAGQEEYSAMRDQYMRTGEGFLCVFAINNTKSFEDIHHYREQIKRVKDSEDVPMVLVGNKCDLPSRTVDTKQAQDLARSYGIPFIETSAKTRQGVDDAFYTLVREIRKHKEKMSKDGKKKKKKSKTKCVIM
- ASSAY NAME: KRAS(G12C)/SOS1 homogeneous time-resolved fluorescence (HTRF) assay
- CONDITION INFO: absence of GTP, 4° C. for 3 hr, read-out: KRAS (G12C) binding
- Method: KRAS(G12C)/SOS1 Homogeneous Time-Resolved Fluorescence (HTRF) Assay Binding of test compounds to KRAS(G12C) protein, which in turn blocks KRAS(G12C) interaction with the SOS1 protein, was measured in the absences of GTP by homogeneous time-resolved fluorescence (HTRF) using the KRAS-G12C/SOS1 Binding Assay Kit (Cisbio, #63ADK000CB16PEG), following the manufacturer's instructions, except as noted. 3-fold serial dilutions of each test compound were prepared ranging from M to 1.02 nM. […]
ATTRIBUTE MEASURED: IC50

# COMPOUND, OBSERVED MEASUREMENT
records = [
    ("C=CC(=O)N1CCN(c2nc(OCCN3CCC(N4CCN(Cc5ccc(-n6c(O)nnc6-c6cc(C)c(O)cc6O)cc5)CC4)CC3)nc3c2CCN(c2cccc4cccc(Cl)c24)C3)C[C@@H]1CC#N", "< 100 nM"),
    ("CCc1cc(-c2nnc(C(=O)NC(C)C)n2-c2ccc(CN3CCN(CC4CCN(C(=O)CCNc5nc6c(c(N7CCN(C(C)=O)CC7)n5)CCN(c5cc(O)cc7ccccc57)C6)CC4)CC3)cc2)c(O)cc1O", "> 1000 nM"),
    ("C=CC(=O)N1CCN(c2nc(OC[C@@H]3C[C@H](N4CCC5(CCN(Cc6ccc(-n7c(C(=O)NCC)nnc7-c7cc(C(C)C)c(O)cc7O)cc6)CC5)CC4)CN3C)nc3c2CCN(c2cccc4cccc(Cl)c24)C3)C[C@@H]1CC#N", "< 100 nM"),
    ("C=CC(=O)N1CCN(c2nc(OCCN3CCC4(CC3)CCN(C(=O)C3CCN(Cc5ccc(-n6c(C(N)=O)nnc6-c6cc(C(C)C)c(O)cc6O)cc5)CC3)CC4)nc3c2CCN(c2cccc4cccc(Cl)c24)C3)C[C@@H]1CC#N", "< 100 nM"),
]
